# ASSAY OVERVIEW: Cytotoxicity against human AG1523 cells assessed as inhibition of cell growth incubated for 72 hrs by MTT assay
# Type: toxicity, cell-based
MEASUREMENT LABEL: IC50 at 72 h

{"columns": ["INPUT SMILES", "MEASUREMENT LABEL", "RECORDED RESULT"],
 "data": [
  ["O=[N+]([O-])c1cccc(-c2nccc3c(-c4ccccc4)c[nH]c23)c1", "IC50 at 72 h", "> 100 µM"],
  ["COc1ccc(Cn2cc(-c3ccccc3)c3ccnc(-c4ccccc4)c32)cc1", "IC50 at 72 h", "> 100 µM"],
  ["Clc1ccc(-c2nccc3c(-c4ccccc4)c[nH]c23)cc1", "IC50 at 72 h", "> 100 µM"],
  ["CC(=O)c1ccc(-c2nccc3c(-c4cccc(F)c4)c[nH]c23)cc1", "IC50 at 72 h", "> 100 µM"],
  ["COc1ccc(Cn2cc(-c3cccc(F)c3)c3ccnc(-c4ccc(Cl)cc4)c32)cc1", "IC50 at 72 h", "> 100 µM"],
  ["c1ccc(-c2c[nH]c3c(-c4ccccc4)nccc23)cc1", "IC50 at 72 h", "85.1 µM"],
  ["CC(=O)c1ccc(-c2nccc3c(-c4ccccc4)c[nH]c23)cc1", "IC50 at 72 h", "> 100 µM"],
  ["COc1ccc(Cn2cc(-c3ccccc3)c3ccnc(-c4ccc(Cl)cc4)c32)cc1", "IC50 at 72 h", "> 100 µM"],
  ["COc1ccc(Cn2cc(-c3cccc(F)c3)c3ccnc(-c4ccc(OC)cc4OC)c32)cc1", "IC50 at 72 h", "> 100 µM"],
  ["COc1ccc(Cn2cc(-c3ccccc3)c3ccnc(-c4cccc([N+](=O)[O-])c4)c32)cc1", "IC50 at 72 h", "> 100 µM"],
  ["Fc1cccc(-c2c[nH]c3c(-c4ccccc4)nccc23)c1", "IC50 at 72 h", "> 100 µM"],
  ["O=[N+]([O-])c1cccc(-c2nccc3c(-c4cccc(F)c4)c[nH]c23)c1", "IC50 at 72 h", "49 µM"],
  ["COc1ccc(Cn2cc(-c3cccc(F)c3)c3ccnc(-c4cccc([N+](=O)[O-])c4)c32)cc1", "IC50 at 72 h", "> 100 µM"],
  ["COc1ccc(-c2nccc3c(-c4ccccc4)c[nH]c23)c(OC)c1", "IC50 at 72 h", "79.8 µM"],
  ["COc1ccc(Cn2cc(-c3cccc(F)c3)c3ccnc(-c4ccc(C(C)=O)cc4)c32)cc1", "IC50 at 72 h", "> 100 µM"],
  ["COc1ccc(-c2nccc3c(-c4cccc(F)c4)c[nH]c23)c(OC)c1", "IC50 at 72 h", "56.3 µM"],
  ["Fc1cccc(-c2c[nH]c3c(-c4ccc(Cl)cc4)nccc23)c1", "IC50 at 72 h", "78.6 µM"],
  ["COc1ccc(Cn2cc(-c3ccccc3)c3ccnc(-c4ccc(C(C)=O)cc4)c32)cc1", "IC50 at 72 h", "> 100 µM"],
  ["COc1ccc(Cn2cc(-c3ccccc3)c3ccnc(-c4ccc(OC)cc4OC)c32)cc1", "IC50 at 72 h", "> 100 µM"],
  ["COc1ccc(Cn2cc(-c3cccc(F)c3)c3ccnc(-c4ccccc4)c32)cc1", "IC50 at 72 h", "> 100 µM"]
]}
